- Test details: Pharmacokinetic study in Balb/c mice, intravenous administration
- Assay type: in vivo
- Protocol conditions: male, Balb/c, mouse, plasma; IV 5 mg/kg; read-out: AUC0→∞ (AUCINF_obs) (converted)
Observable: AUC(0-inf) (ng·h/mL)

Molecule	Unit info	Meas value
CCN1/C(=C\C=C\c2sc3cc(NC(C)=O)ccc3[n+]2CC)Sc2cc(NC(C)=O)ccc21.[I-]	ng·h/mL	1020

* * *

- Tested on: DENV, ZIKV and KUNV
- Test details: Inhibition of flavivirus infection, summary bounds over DENV, ZIKV and KUNV
- Format: cell-based
- Protocol conditions: read-out: EC50, infectious virus (plaque-forming units), p.i.
pEC50: −log10 of the molar value.

Molecule	pEC50
CCN1/C(=C\C=C\c2sc3cc(NC(C)=O)ccc3[n+]2CC)Sc2cc(NC(C)=O)ccc21.[I-]	> 5.82

* * *

- System: MeV
- Test details: IC50 in established virological assays (Table 1), MeV
- Type: cell-based, Measles morbillivirus
- Protocol conditions: Measles morbillivirus; MeV
- Protocol: In summary, a set of C10 derivatives (FIG. 12) was designed, synthesized and tested against HCV (which is considered as an established system to monitor drug effects against Flaviviridae) as well as DENV for comprehensive structure-activity relationship (SAR) analysis and target validation. IC50 and CC50 values for compound C10 were determined in established virological assays (Table 1). […] Further, said experiments underline the specificity of compound C10 for flaviviruses.
Observable: IC50

Molecule	Meas value
CCN1/C(=C\C=C\c2sc3cc(NC(C)=O)ccc3[n+]2CC)Sc2cc(NC(C)=O)ccc21.[I-]	> 10 µM

* * *

- Test details: Pharmacokinetic study in Balb/c mice, intravenous administration
- Type: in vivo
- Protocol conditions: male, Balb/c, mouse, plasma; IV 5 mg/kg; read-out: CL (Cl_obs)

Molecule	Unit info	clearance
CCN1/C(=C\C=C\c2sc3cc(NC(C)=O)ccc3[n+]2CC)Sc2cc(NC(C)=O)ccc21.[I-]	mL/min/kg	82.1

* * *

- Test details: Pharmacokinetic study in Balb/c mice, intravenous administration
- Assay type: in vivo
- Protocol conditions: male, Balb/c, mouse, plasma; IV 5 mg/kg; read-out: AUC0→t = 240 min (AUClast) (converted)

Molecule	AUC(0-t) (ng·h/mL)
CCN1/C(=C\C=C\c2sc3cc(NC(C)=O)ccc3[n+]2CC)Sc2cc(NC(C)=O)ccc21.[I-] [C10]	892

* * *

- Test details: Pharmacokinetic study in Balb/c mice, intravenous administration
- Type: in vivo
- Protocol conditions: male, Balb/c, mouse, plasma; IV 5 mg/kg; read-out: MRT (MRTinf) (converted)

Molecule	MRT inf
CCN1/C(=C\C=C\c2sc3cc(NC(C)=O)ccc3[n+]2CC)Sc2cc(NC(C)=O)ccc21.[I-]	1.36 h

* * *

- System: RSV
- Test details: RT-qPCR analysis of virus genomes, RSV
- Type: cell-based
- Protocol conditions: human respiratory syncytial virus, c.t., read-out: EC50 from RT-qPCR analysis
pEC50: −log10 of the molar value.
Observable: pEC50

Molecule	Observable	Meas value
CCN1/C(=C\C=C\c2sc3cc(NC(C)=O)ccc3[n+]2CC)Sc2cc(NC(C)=O)ccc21.[I-]	pEC50	6.08

* * *

- Test details: Pharmacokinetic study in Balb/c mice, intravenous administration
- Format: in vivo
- Protocol conditions: male, Balb/c, mouse, plasma; IV 5 mg/kg
Observable: Tmax (min)

Molecule	Observable	Meas value
CCN1/C(=C\C=C\c2sc3cc(NC(C)=O)ccc3[n+]2CC)Sc2cc(NC(C)=O)ccc21.[I-]	Tmax	5

* * *

- Test system: RSV
- Test details: IC50 in established virological assays (Table 1), RSV
- Type: cell-based
- Protocol conditions: human respiratory syncytial virus

Molecule	IC50 (µM)
CCN1/C(=C\C=C\c2sc3cc(NC(C)=O)ccc3[n+]2CC)Sc2cc(NC(C)=O)ccc21.[I-]	4.3

* * *

- Test details: Pharmacokinetic study in Balb/c mice, intravenous administration
- Assay type: in vivo
- Protocol conditions: male, Balb/c, mouse, plasma; IV 5 mg/kg; read-out: MRT (MRTlast) (converted)

Molecule	MRT last / min
CCN1/C(=C\C=C\c2sc3cc(NC(C)=O)ccc3[n+]2CC)Sc2cc(NC(C)=O)ccc21.[I-]	35.4

* * *

- Tested on: RSV
- Test details: Plaque assay, RSV infection (A549 cells lysed at 22 h)
- Format: cell-based
- Protocol conditions: human respiratory syncytial virus, c.t., read-out: EC50 from plaque assays
pEC50: −log10 of the molar value.

Molecule	pEC50
CCN1/C(=C\C=C\c2sc3cc(NC(C)=O)ccc3[n+]2CC)Sc2cc(NC(C)=O)ccc21.[I-]	6.05

* * *

- Test details: Pharmacokinetic study in Balb/c mice, intravenous administration
- Format: in vivo
- Protocol conditions: male, Balb/c, mouse, plasma, iv, 5 mg/kg, mice, IV administration; read-out: half-life in plasma/serum (converted)

Compound	half-life
CCN1/C(=C\C=C\c2sc3cc(NC(C)=O)ccc3[n+]2CC)Sc2cc(NC(C)=O)ccc21.[I-] [C10]	~2 h

* * *

- Test details: Pharmacokinetic study in Balb/c mice, intravenous administration
- Type: in vivo
- Protocol conditions: male, Balb/c, mouse, plasma, 5 mg/kg; calculated, IV; read-out: volume of distribution

Molecule	Vd / L/kg
CCN1/C(=C\C=C\c2sc3cc(NC(C)=O)ccc3[n+]2CC)Sc2cc(NC(C)=O)ccc21.[I-]	14.1

* * *

Quick list: half-life at 2 mM per entry.
- Test details: Metabolic stability in mouse liver microsomes
- Protocol conditions: male, Balb/c, mouse, microsomes, pH 7.4
Structures can show the parent of a compound that is named as a salt.

Compound	Unit info	half-life at 2 mM
CC(C)NCC(O)COc1cccc2ccccc12 (racemic) [Propranolol, (+,−) Propranolol hydrochloride, reference compound]	h	0.898
CCN1/C(=C\C=C\c2sc3cc(NC(C)=O)ccc3[n+]2CC)Sc2cc(NC(C)=O)ccc21.[I-] [C10]	h	5.79

* * *

- Test system: DENV1
- Test details: Plaque assay of released virus, DENV1-infected Vero cells
- Format: cell-based
- Protocol conditions: Dengue virus, read-out: EC50 from plaque assays, DENV1, c.t. (co-treat)
pEC50: −log10 of the molar value.

Compound	Measured on	pEC50
CCN1/C(=C\C=C\c2sc3cc(NC(C)=O)ccc3[n+]2CC)Sc2cc(NC(C)=O)ccc21.[I-] [C10]	DENV1	7.40

* * *

- Test system: ZIKV (Asian/Cook Islands/2014)
- Test details: Plaque assay of released virus, ZIKV-infected Vero cells
- Assay type: cell-based
- Protocol conditions: Zika virus, read-out: EC50 from plaque assays, ZIKV, p.i.

Molecule	EC50 (nM)
CCN1/C(=C\C=C\c2sc3cc(NC(C)=O)ccc3[n+]2CC)Sc2cc(NC(C)=O)ccc21.[I-]	210

* * *

- Test details: in vitro
- Protocol conditions: mouse, plasma
- Method: Plasma stability is defined as the percentage of parent compound remaining in plasma over the time. Incubations were carried out in 5 aliquots of 70 μL each (one for each time point), in duplicates. […] Five time points over 120 minutes have been analyzed. […] Supernatants were analyzed by the HPLC system coupled with tandem mass spectrometer. The percentage of the test compounds remaining after incubation in plasma and their half-lives (T1/2) were calculated.
Observable: half-life at 1 μM

Compound	Observable	Meas value
CCN1/C(=C\C=C\c2sc3cc(NC(C)=O)ccc3[n+]2CC)Sc2cc(NC(C)=O)ccc21.[I-]	half-life at 1 μM	3.68 h
CC(C)[N+](C)(CCOC(=O)C1c2ccccc2Oc2ccccc21)C(C)C [Propantheline, Propantheline bromide, reference compound]	half-life at 1 μM	0.333 h

* * *

- Test details: Cytotoxicity in Huh7.5 cells (Cell Titer Glo, ATP)
- Type: cell-based
- Protocol conditions: human, Huh7.5 cells; Huh7.5, 24 h

Compound	Unit info	CC50 at 24 h
CCN1/C(=C\C=C\c2sc3cc(NC(C)=O)ccc3[n+]2CC)Sc2cc(NC(C)=O)ccc21.[I-] [C10]	µM	106

* * *

- Test system: RSV
- Test details: Plaque assay, RSV infection (A549 cells lysed at 22 h)
- Assay type: cell-based
- Protocol conditions: human respiratory syncytial virus, co-added with virus (text, Tables 2A and 2B), read-out: EC50
- Method: Vero and BHK-21 cells were maintained in DMEM media supplemented with 10% heat-inactivated FBS at 37° C. in a humidified incubator supplemented with 5% CO2; A549 cells were maintained in F-12K medium supplemented with 10% heat-inactivated Fetal Bovine Serum (FBS), 2 mM L-glutamine, 50 U/I penicillin, 0.05 mg/l streptomycin. […] Viral titer was subsequently determined by plaque assay (see below). […]
Observable: EC50

Molecule	Measured on	Meas value
CCN1/C(=C\C=C\c2sc3cc(NC(C)=O)ccc3[n+]2CC)Sc2cc(NC(C)=O)ccc21.[I-]	RSV	~800 nM

* * *

- Test system: ChikV
- Test details: IC50 in established virological assays (Table 1), ChikV
- Format: cell-based
- Protocol conditions: Chikungunya virus
pIC50: −log10 of the molar value.

Molecule	pIC50
CCN1/C(=C\C=C\c2sc3cc(NC(C)=O)ccc3[n+]2CC)Sc2cc(NC(C)=O)ccc21.[I-]	5.25
